molecular target: soluble guanylate cyclase (human GUCYA3 and GUCYB3) overexpressed in CHO cells (Homo sapiens (Human), UniProt Q02108+Q02153); test: CHO cellular assay (cGMP production, Cisbio cGMP HTRF kit); type: cell-based; conditions: CHO GUCY clone 8E10, cGMP production, assay buffer with 1 mM IBMX and 20 uM ODQ, 1 h room temperature; minimum quantification limit 0.5 nM (listed 0.5 nM means ≤0.5 nM); read-out: EC50
Sequence (Q02108 whole entry partner): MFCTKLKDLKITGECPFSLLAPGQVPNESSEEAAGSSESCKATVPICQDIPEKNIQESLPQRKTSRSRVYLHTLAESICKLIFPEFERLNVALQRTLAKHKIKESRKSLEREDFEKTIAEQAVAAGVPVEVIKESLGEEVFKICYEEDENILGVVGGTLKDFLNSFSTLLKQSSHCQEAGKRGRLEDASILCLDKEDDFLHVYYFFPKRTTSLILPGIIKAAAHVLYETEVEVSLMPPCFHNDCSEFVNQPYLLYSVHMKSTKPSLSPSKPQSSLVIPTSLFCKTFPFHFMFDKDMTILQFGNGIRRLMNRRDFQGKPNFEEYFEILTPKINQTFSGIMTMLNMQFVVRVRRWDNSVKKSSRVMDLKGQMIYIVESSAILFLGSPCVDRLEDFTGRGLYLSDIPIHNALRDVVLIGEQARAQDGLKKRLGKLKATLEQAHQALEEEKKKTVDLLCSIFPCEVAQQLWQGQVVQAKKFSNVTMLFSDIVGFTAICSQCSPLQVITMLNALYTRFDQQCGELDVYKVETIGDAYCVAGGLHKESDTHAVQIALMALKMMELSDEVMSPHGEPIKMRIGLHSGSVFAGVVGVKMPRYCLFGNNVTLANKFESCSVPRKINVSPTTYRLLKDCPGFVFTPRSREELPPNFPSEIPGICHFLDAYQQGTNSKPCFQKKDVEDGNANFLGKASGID
Sequence (Q02153 whole entry): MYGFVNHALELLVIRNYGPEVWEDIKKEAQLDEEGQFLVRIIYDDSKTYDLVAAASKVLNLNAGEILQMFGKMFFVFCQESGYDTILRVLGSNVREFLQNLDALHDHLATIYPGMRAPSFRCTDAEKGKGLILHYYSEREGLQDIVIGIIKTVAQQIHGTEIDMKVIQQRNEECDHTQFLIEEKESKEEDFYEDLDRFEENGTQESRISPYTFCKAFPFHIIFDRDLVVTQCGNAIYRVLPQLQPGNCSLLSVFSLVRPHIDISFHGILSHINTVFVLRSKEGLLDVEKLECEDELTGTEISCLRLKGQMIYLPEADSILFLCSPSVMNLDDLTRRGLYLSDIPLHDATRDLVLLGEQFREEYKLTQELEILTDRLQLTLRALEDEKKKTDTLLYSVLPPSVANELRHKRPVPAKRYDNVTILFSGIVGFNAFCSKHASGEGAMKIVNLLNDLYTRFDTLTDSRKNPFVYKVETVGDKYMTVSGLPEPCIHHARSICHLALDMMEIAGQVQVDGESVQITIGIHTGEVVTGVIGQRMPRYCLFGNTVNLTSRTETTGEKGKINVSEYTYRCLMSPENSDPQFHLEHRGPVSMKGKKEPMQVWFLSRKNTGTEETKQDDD
Property Name: EC50

Give measured EC50 for every item shown.
1. Cc1cc(C2CCN(C(=O)C3CC3)CC2)ccc1CC1CCc2cccc(-c3cccc(-n4ncc(C(=O)O)c4C)c3)c21 (single isomer, unassigned; (+)) [54. b). (+)]
2. CCc1cc(NC2COc3cccc(-c4cccc(-n5ncc(C(=O)O)c5C(F)(F)F)n4)c32)ccc1C1CCN(C(=O)C2CC2)CC1 (single isomer, unassigned; (+)) [(+)-36-1]
3. CCc1cc(CC2CCc3cccc(-c4cccc(-n5ncc(C(=O)O)c5CC)n4)c32)ccc1C1CCN(C(=O)OC)CC1 (single isomer, unassigned; (+)) [Example 41. b). (+)]

Response given:
1 nM
≤ 0.5 nM
≤ 0.5 nM

* * *

Consider the following compounds; for each one, report its EC50.
molecular target: soluble guanylate cyclase (human GUCYA3 and GUCYB3) overexpressed in CHO cells (Homo sapiens (Human), UniProt Q02108+Q02153); test: CHO cellular assay (cGMP production, Cisbio cGMP HTRF kit); format: cell-based; conditions: CHO GUCY clone 8E10, cGMP production, assay buffer with 1 mM IBMX and 20 uM ODQ, 1 h room temperature; minimum quantification limit 0.5 nM (listed 0.5 nM means ≤0.5 nM); read-out: EC50
Answers are plain numbers, in nM.

Below are worked cases with known answers.
INSERT INTO results (compound, unit_of_measurement, recorded_value) VALUES
  ('CCc1nc(NC2CCc3cccc(-c4cccc(-n5ncc(C(=O)O)c5CC)n4)c32)ccc1C1CCN(C(=O)C2CC2)CC1 (single isomer, unassigned; (+)) [Example 63a]', 'nM', 2),
  ('Cc1cc2c(c(-c3cccc(-n4ncc(C(=O)O)c4C(F)(F)F)n3)c1)C(Nc1ccc(C3CCN(C(=O)C4CC4)CC3)cc1C)CC2 (single isomer, unassigned; (+)) [43 (+)]', 'nM', 1);

Field: next compound
Challenge: What does the record list as EC50 for O=C(O)c1cnn(-c2cccc(-c3cccc4c3C(Nc3ccc(C5CCN(C(=O)C6CC6)CC5)cc3)CC4)n2)c1C(F)(F)F (centres unmarked) ?
Response given: 1

* * *

target: soluble guanylate cyclase (human GUCYA3 and GUCYB3) overexpressed in CHO cells (Homo sapiens (Human), UniProt Q02108+Q02153); test: CHO cellular assay (cGMP production, Cisbio cGMP HTRF kit); assay type: cell-based; conditions: CHO GUCY clone 8E10, cGMP production, assay buffer with 1 mM IBMX and 20 uM ODQ, 1 h room temperature; minimum quantification limit 0.5 nM (listed 0.5 nM means ≤0.5 nM); read-out: EC50
Property Name: EC50 (nM)
One number for each entry, in nM.

INSERT INTO assay_data (compound, property_name, recorded_value) VALUES
  ('Cc1nnc(N2CCC(c3ccc(NC4CCc5cccc(-c6cccc(-n7ncc(C(=O)O)c7C)n6)c54)c(C)c3)CC2)o1 (single isomer, unassigned; (-)) [58. b). (−)]', 'EC50', 3.2);

Proceeding to the next compound to report its EC50.
Challenge: # EC50 lookup, item CCC[C@H](O)C(=O)N1CCC(c2ccc(CC3CCc4cccc(-c5cccc(-n6ncc(C(=O)O)c6CC)n5)c43)cc2CC)CC1 (single isomer, unassigned; (-)) [40-1 (−)]
Response given: 15

* * *

Hi there, I'd appreciate the recorded EC50 for every entry that follows.
biological target: soluble guanylate cyclase (human GUCYA3 and GUCYB3) overexpressed in CHO cells (Homo sapiens (Human), UniProt Q02108+Q02153); experiment: CHO cellular assay (cGMP production, Cisbio cGMP HTRF kit); assay type: cell-based; conditions: CHO GUCY clone 8E10, cGMP production, assay buffer with 1 mM IBMX and 20 uM ODQ, 1 h room temperature; minimum quantification limit 0.5 nM (listed 0.5 nM means ≤0.5 nM); read-out: EC50

Below, each entry is followed by its recorded EC50 result.
INSERT INTO results (compound, recorded_value) VALUES
  ('CCc1cc(CC2CCc3cccc(-c4cccc(-n5ncc(C(=O)O)c5CC)n4)c32)ccc1C1CCN(C(=O)[C@H](C)O)CC1 (single isomer, unassigned; (-)) [Example 39. b). (−)]', '1 nM'),
  ('Cc1cc(C2CCN(C(=O)CC3CC3)CC2)c(F)cc1NC1CCc2cccc(-c3cccc(-n4ncc(C(=O)O)c4C)n3)c21 (single isomer, unassigned; (-)) [(−)-46-5]', '681 nM'),
  ('Cc1cc(C2CCN(C(=O)C3CCC3)CC2)ccc1NC1CCc2cccc(-c3cccc(-n4ncc(C(=O)O)c4C)n3)c21 (single isomer, unassigned; (+)) [Example 45a]', '≤ 0.5 nM'),
  ('C=CCOC(=O)N1CCC(c2ccc(NC3CCc4cccc(-c5cccc(-n6ncc(C(=O)O)c6CC)n5)c43)cc2CC)CC1 (single isomer, unassigned; (+)) [(+)-52-3]', '≤ 0.5 nM'),
  ('CCc1cc(O[C@H]2CCc3cccc(-c4cccc(-n5ncc(C(=O)O)c5CC)n4)c32)ccc1C1CCN(C(=O)[C@@H](O)CC)CC1 [Example 31-2]', '≤ 0.5 nM'),
  ('Cc1cc(C2CCN(C(=O)C3CC3)CC2)ccc1NC1CCc2cccc(-c3cccc(-n4ncc(C(=O)O)c4C(F)(F)F)n3)c21 (single isomer, unassigned; (+)) [Example (+)-8. b)]', '≤ 0.5 nM'),
  ('Cc1cc(C2CCN(C(=O)[C@H](C)O)CC2)ccc1NC1COc2cccc(-c3cccc(-n4ncc(C(=O)O)c4C)n3)c21 (single isomer, unassigned; (+)) [Example 35a]', '≤ 0.5 nM'),
  ('Cc1cc(C2CCN(C(=O)C3CC3)CC2)ccc1NC1CCc2cccc(-c3cccc(-n4ncc(C(=O)O)c4C)n3)c21 (single isomer, unassigned; (+)) [Example 7a]', '≤ 0.5 nM');

For each of the items listed, what is its EC50?
1. CCC[C@H](O)C(=O)N1CCC(c2ccc(NC3CCc4cccc(-c5cccc(-n6ncc(C(=O)O)c6CC)n5)c43)cc2CC)CC1 (single isomer, unassigned; (+)) [Example 49a]
2. CCc1c(C(=O)O)cnn1-c1cccc(-c2cccc3c2N(Cc2ccc(C4CCN(C(=O)C5CC5)CC4)cc2C)CC3C)n1 (single isomer, unassigned; (-)) [(−)-20-2]
3. Cc1cc(C2CCN(C(=O)C3CC3)CC2)ccc1CC1CCc2cccc(-c3cccc(-n4ncc(C(=O)O)c4C)n3)c21 (single isomer, unassigned; (+)) [Example 37. b). (+)]

Response given:
1: ≤ 0.5 nM; 2: 1 nM; 3: ≤ 0.5 nM

* * *

Target: soluble guanylate cyclase (human GUCYA3 and GUCYB3) overexpressed in CHO cells (Homo sapiens (Human), UniProt Q02108+Q02153)
Assay: CHO cellular assay (cGMP production, Cisbio cGMP HTRF kit)
Type: cell-based
Settings: CHO GUCY clone 8E10, cGMP production, assay buffer with 1 mM IBMX and 20 uM ODQ, 1 h room temperature; minimum quantification limit 0.5 nM (listed 0.5 nM means ≤0.5 nM); read-out: EC50
Procedure: Chinese hamster ovary (CHO) cells overexpressing soluble guanylate cyclase were generated to test the effect of sGC activators in a cellular context. Human cDNAs for GUCYA3 (RefSeq: NM_000856.3) and GUCYB3 (RefSeq: NM_000857.1) were amplified by PCR from a HUVEC (Human Umbilical Vein Endothelial Cells) cDNA library and cloned into mammalian expression vectors. […] The EC50s are calculated based on the amount of cGMP interpolated from the standard curve, using a 4-parameter sigmoidal dose-response.
For each entry below, report its log10(EC50) value.
Kindly note that the scale is log10 and the underlying EC50 is in nM.

Please review the entries below; each comes with its answer.
INSERT INTO measurements (compound, property_name, recorded_value) VALUES
  ('CCc1cc(NC2COc3cccc(-c4cccc(-n5ncc(C(=O)O)c5CC)n4)c32)ccc1C1CCN(C(=O)C2CC2)CC1 (single isomer, unassigned; (-)) [(−)-36-2]', 'log10(EC50)', 0.00),
  ('CCc1c(C(=O)O)cnn1-c1cccc(-c2cccc3c2C(Cc2ccc(C4CCN(C(=O)C5CC5)CC4)cc2C)CC3)n1 (single isomer, unassigned; (-)) [38-3 (−)]', 'log10(EC50)', 1.52),
  ('C=C(C)OC(=O)N1CCC(c2ccc(NC3CCc4cccc(-c5cccc(-n6ncc(C(=O)O)c6C)n5)c43)c(C)c2)CC1 (centres unmarked)', 'log10(EC50)', 0.15),
  ('Cc1c(NC2CCc3cccc(-c4cccc(-n5ncc(C(=O)O)c5C)n4)c32)ccc(C2CCN(C(=O)CC3CC3)CC2)c1F (single isomer, unassigned) [Example (+) or (−)-46-4]', 'log10(EC50)', 0.15),
  ('CCc1c(C(=O)O)cnn1-c1cccc(-c2cccc3c2N(Cc2ccc(C4CCN(C(=O)[C@H](C)O)CC4)cc2C)CC3)n1', 'log10(EC50)', 0.15),
  ('CCc1cc(CC2CCc3cccc(-c4cccc(-n5ncc(C(=O)O)c5C)c4)c32)ccc1C1CCN(C(=O)C2CC2)CC1 (single isomer, unassigned; (-)) [55-1 (−)]', 'log10(EC50)', 1.18),
  ('Cc1cc(C2CCN(C(=O)CC3CC3)CC2)cc(F)c1NC1CCc2cccc(-c3cccc(-n4ncc(C(=O)O)c4C)n3)c21 (single isomer, unassigned; (-)) [(−)-53-3]', 'log10(EC50)', 1.77);

From here, focus on the item given below.
Challenge: I am curious: what log10(EC50) value has been reported for Cc1c(NC2CCc3cccc(-c4cccc(-n5ncc(C(=O)O)c5C)n4)c32)ccc(C2CCN(C(=O)CC3CC3)CC2)c1F (single isomer, unassigned) [Example (−) or (+)-46-4] ?
Response given: 2.13
